# ASSAYED TARGET: SARS-COV-2 RBD extracellular domain expressed with a C-terminal mouse IgG2a (SARS-COV-2 RBD-mFc) (SARS-CoV-2)
# ASSAY EXPLANATION: SPR, captured mAb, RBD-mFc in solution, 37 C
The entries below come with measured t½ values attached.
The reply should contain only the number, in h.

- BINDER: "mAb10935 (antibody, V domains shown) VH: EVQLVESGGGLVQPGGSLRLSCAASGFTVSSNYMSWVRQAPGKGLEWVSLIYSGGSTYYADSVKGRFTISRHNSKNTLYLQMNSLRSEDTAVYYCARVPLGDYYYGMDVWGQGTTVTVSS VL: DIQMTQSPSSLSASVGDRVTITCQASQDINKYLNWYQQKPGKAPKLLIYDASNLETGVPSRFSGSGSGTDFTFTISSLQPEDIATYYCQQSDNLPLTFGGGTKVEIKR"
  READOUT: "t½"
  ASSAY RESULT: 0.39
- BINDER: "mAb11004 (antibody, V domains shown) VH: QVQLVESGGGVVQPGRSLRLSCVASGFTFSIYGMDWVRQAPGKGLEWVAVISYDGSNKYYADSVKGRFTISRDNSKNTLYLQMNSLRPEDTAVYYCAKDREAAADAFDIWGQGTMVTVSS VL: DIQMTQSPSSVSASVGDRVTITCRASQGISSWLAWYQQKPGKAPKLLIYAASSLHSGVPSRFSGSGSGTDFTLTISSLQPEDFATYYCQQANSFRLTFGGGTKVEIKR"
  READOUT: "t½"
  ASSAY RESULT: 1.63
- BINDER: "mAb10955 (antibody, V domains shown) VH: EVQLVESGGGLVQPGGSLRVSCAASGFTVSRNYMSWVRQAPGKGLEWVSVIYSGGSTFYADSVKGRFTISRDNSKNTLYLQMNSLRAEDTAIYYCARYIPRFDPWGQGTLVTVSS VL: DIQMTQSPSSLSASVGDRVTITCQASQDISNYLNWFQQKPGRAPKLLIYDASNLETGVPSRFSGSGSGTDFTFTISSLQPEDIATYYCQQYDNLPITFGQGTRLEIKR"
  READOUT: "t½"
  ASSAY RESULT: 0.497
- BINDER: "mAb10957 (antibody, V domains shown) VH: EVQLVESGGGLVQPGGSLRLSCAASGVTVSSNYMSWVRQAPGKGLEWVSVIYSGGSTFYADSVKGRFTISRDNSKNTLFLQMNSLRIEDTAVYYCARDLGPYGMDVWGQGTTVTVSS VL: DIQLTQSPSFLSASVGDRVTITCRASQGISSYLAWYQQKPGKAPKLLIYAASTLQSGVPSRFSGSGSGTQFILTISSLQPEDFATYYCQQLNSYPGFTFGPGTKVDIKR"
  READOUT: "t½"
  ASSAY RESULT: 2.68

Shift focus to the following entry.
Look up t½: mAb10986 (antibody, V domains shown) VH: EVQLVESGGGLVQPGGSLRLSCAASEFTVSSNYMSWVRQAPGKGLEWVSVIYSGGSTFYADSVKGRFTISRDNSKNTLYLQMNSLRAEDTAVYYCARALPYGDLHFDYWGQGTLVTVSS VL: QSVLTQPPSVSGAPGQRVTISCTGSSSNIGTGYDVHWYQQLPGTAPKLLIYGNTNRPSGVPDRFSGSKSGTSASLAITGLQAEDEADYYCQSYDSSLSDSYVFGTGTKVTVLG 3.32

Taken from patent US20240043504A1.
